src = patent US20080226630A1

# test system: T1, recombinant RSV protein G, G(B): residues 66-292 of strain 18537 (human respiratory syncytial virus …, UniProt P20896 66-292)
# T1 construct: also called soluble recombinant G protein; recombinant protein G
# T1 sequence: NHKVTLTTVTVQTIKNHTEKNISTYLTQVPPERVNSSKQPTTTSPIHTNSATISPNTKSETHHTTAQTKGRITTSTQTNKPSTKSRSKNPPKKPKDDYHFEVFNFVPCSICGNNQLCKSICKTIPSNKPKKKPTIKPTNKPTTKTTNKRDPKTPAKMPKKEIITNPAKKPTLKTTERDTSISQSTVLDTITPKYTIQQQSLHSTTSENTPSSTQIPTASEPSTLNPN
# experiment description: SPR Biacore 3000, Fab over amine-coupled recombinant protein G
observable: koff (s⁻¹)
State the answer as a number, implicitly in s⁻¹.

Query koff for Fab fragment of antibody 853 (Fab, also called Fab clone 853) VH: EVQLVQSGAEVKKPGQSLKISCKTSGYIFTNYWIGWVRQRPGKGLEWMGVIFPADSDARYSPSFQGQVTISADKSIGTAYLQWSSLKASDTAIYYCARPKYYFDSSGQFSEMYYFDFWGQGTLVTVSS light: EIVLTQSPGTLSLSPGERATLSCRASQSVSSNYLAWYQQKPGQAPRLLIYGASSRAAGMPDRFSGSGSGTDFTLTISRLEPEDFAVYYCQQYGNSPLTFGGGTEVEIKRTVAAPSVFIFPPSDEQLKSGTASVVCLLNNFYPREAKVQWKVDNALQSGNSQESVTEQDSKDSTYSLSSTLTLSKADYEKHKVYACEVTHQGLSSPVTKSFNRGEC 0.0014
